For each record, write down the corresponding pIC50.
# assayedSystem: full-length human BTK (Homo sapiens, UniProt Q06187)
# Construct: 2.5× stocks of full-length human BTK (08-080); purchased CarnaBio USA, Inc., Natick, Mass; 08-080
# Sequence (Q06187 whole entry): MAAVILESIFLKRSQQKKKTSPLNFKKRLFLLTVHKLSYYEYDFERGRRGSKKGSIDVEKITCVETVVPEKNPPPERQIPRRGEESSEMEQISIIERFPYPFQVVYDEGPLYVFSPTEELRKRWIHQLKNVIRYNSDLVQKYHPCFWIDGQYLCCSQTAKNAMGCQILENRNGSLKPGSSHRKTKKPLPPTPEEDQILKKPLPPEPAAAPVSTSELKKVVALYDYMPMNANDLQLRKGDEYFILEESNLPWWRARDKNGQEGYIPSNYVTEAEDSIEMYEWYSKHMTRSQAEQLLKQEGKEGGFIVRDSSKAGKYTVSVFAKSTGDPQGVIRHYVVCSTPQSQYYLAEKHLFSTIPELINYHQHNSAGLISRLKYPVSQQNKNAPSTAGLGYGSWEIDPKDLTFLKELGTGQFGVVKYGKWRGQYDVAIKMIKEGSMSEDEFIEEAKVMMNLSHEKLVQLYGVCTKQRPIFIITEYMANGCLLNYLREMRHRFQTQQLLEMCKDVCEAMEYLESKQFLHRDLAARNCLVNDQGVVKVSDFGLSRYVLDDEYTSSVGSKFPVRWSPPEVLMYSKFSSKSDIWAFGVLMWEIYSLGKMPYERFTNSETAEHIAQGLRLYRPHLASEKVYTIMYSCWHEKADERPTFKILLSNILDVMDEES
# assayExplanation: Assay A: BTK IC50 Enzyme Assay (microfluidic off-chip mobility shift kinase assay)
# Type: biochemical
# conditionDescription: full-length human BTK, kinKDR peptide substrate, incubated 90 min at 27 C; read-out: Assay A (Time Dependent BTK Enzyme Assay IC50)
pIC50: −log10 of the molar value.

Each of the following entries comes with a recorded value; kindly state pIC50 for each.
1. C=CC(=O)N[C@H]1C[C@@H](Nc2ncc(C(N)=O)c(N)n2)C1
2. C=CC(=O)NCc1cccc(-c2cnc(C(N)=O)nc2)c1

*A*
1: 6.00 to 7.00; 2: 5.30 to 6.00

---

# assayedSystem: full-length human BTK (Homo sapiens)
# Construct: 2.5× stocks of full-length human BTK (08-080); purchased CarnaBio USA, Inc., Natick, Mass; 08-080
# assayExplanation: Assay A: BTK IC50 Enzyme Assay (microfluidic off-chip mobility shift kinase assay)
# Format: biochemical
# conditionDescription: full-length human BTK, kinKDR peptide substrate, incubated 90 min at 27 C; read-out: Assay A (Time Dependent BTK Enzyme Assay IC50)
pIC50: −log10 of the molar value.
For each record, write down the corresponding pIC50.

C=CC(=O)N1CCC(Nc2cnc(Oc3ccc(Oc4ccccc4)cc3)c(C(N)=O)c2)CC1 :: > 7.00

Each of the following entries comes with a recorded value; kindly state pIC50 for each.
1. C/C=C/C(=O)NC1CCN(c2cnc(Oc3ccc(Oc4cccc(F)c4)cc3)c(C(N)=O)c2)CC1
2. C=CC(=O)N1CCCC(c2ccc(C(N)=O)c(Oc3ccc(Oc4ccccc4)cc3)n2)C1 (stereo not shown)
3. C=CC(=O)N1CCC(c2ccc(C(N)=O)c(Oc3ccc(Oc4ccc(C)cc4)cc3)n2)C1 (stereo not shown)

*A*
1: < 5.30; 2: 6.00 to 7.00; 3: > 7.00

---

For each record, write down the corresponding IC50.
# assayedSystem: full-length human BTK (Homo sapiens, UniProt Q06187)
# Construct: 2.5× stocks of full-length human BTK (08-080); purchased CarnaBio USA, Inc., Natick, Mass; 08-080
# assayExplanation: Assay A: BTK IC50 Enzyme Assay (microfluidic off-chip mobility shift kinase assay)
# Assay type: biochemical
# conditionDescription: full-length human BTK, kinKDR peptide substrate, incubated 90 min at 27 C; read-out: Assay A (Time Dependent BTK Enzyme Assay IC50)

Please review the following examples before continuing.
C=CC(=O)N1CCn2ncc(-c3cnc(C(N)=O)c(NC(C)=O)c3)c2C1 :: < 100 nM
C/C=C/C(=O)N1CCC2(CCN(c3cnc(Oc4ccc(Oc5cccc(F)c5)cc4)c(C(N)=O)c3)C2)C1 (centres unmarked) :: 1000 to 5000 nM

Each of the following entries comes with a recorded value; kindly state IC50 for each.
1. C=CC(=O)NC1CCCN(c2ncc(C(N)=O)c(Oc3ccc(Oc4ccccc4)cc3)n2)C1 (centres unmarked)
2. C=CC(=O)Nc1cncc(-c2ccc(C(N)=O)c(Oc3ccc(Oc4ccccc4)cc3)n2)c1
3. C=CC(=O)N1C[C@@H]2CCC[C@H]1CN(c1ncc(C(N)=O)c(Oc3ccc(Oc4ccccc4)cc3)n1)C2

*A*
1. 1000 to 5000 nM
2. < 100 nM
3. 100 to 1000 nM

---

For each record, write down the corresponding IC50.
# assayedSystem: full-length human BTK (Homo sapiens, UniProt Q06187)
# Construct: 2.5× stocks of full-length human BTK (08-080); purchased CarnaBio USA, Inc., Natick, Mass; 08-080
# assayExplanation: Assay A: BTK IC50 Enzyme Assay (microfluidic off-chip mobility shift kinase assay)
# Type: biochemical
# conditionDescription: full-length human BTK, kinKDR peptide substrate, incubated 90 min at 27 C; read-out: Assay A (Time Dependent BTK Enzyme Assay IC50)
Where a name gives a salt, the structure may show the parent alone.

Each of the following entries comes with a recorded value; kindly state IC50 for each.
1. C=CC(=O)N[C@H]1CCN(c2ncc(C(N)=O)c(N)n2)C1
2. C=CC(=O)N[C@H]1CCN(c2nc(Nc3ccc(C(=O)NC(C)(C)C)cc3)c(C(N)=O)cc2F)C1
3. C=CC(=O)N1C[C@@H]2C[C@H]1CN2c1ccc(C(N)=O)c(Nc2ccc(C)nc2)n1
4. C=CC(=O)N1CCC(c2cc(Oc3ccc(NC(=O)c4ccccc4)cc3)c(C(N)=O)cn2)C1 (centres unmarked)
5. C=CC(=O)NCc1ccc(-c2ccc(C(N)=O)c(Oc3ccc(Oc4ccccc4)cc3)n2)s1
6. C=CC(=O)N1CCC(c2ccc(C(N)=O)c(Nc3ccc(C(=O)N4CCN(C(=O)CCCCN)CC4)cc3)n2)CC1 [Compound 29, hydrochloride]
7. C=CC(=O)NC1CCN(c2cnc(Oc3ccc(Oc4ccccc4)cc3)c(C(N)=O)c2)C1 (centres unmarked)

*A*
1: 100 to 1000 nM; 2: 100 to 1000 nM; 3: < 100 nM; 4: 1000 to 5000 nM; 5: > 5000 nM; 6: < 100 nM; 7: 100 to 1000 nM

Short answer for C=CC(=O)N[C@H]1CCN(c2ccc(C(N)=O)c(Nc3ccc(F)nc3)n2)C1 : IC50 was < 100 nM

---

# assayedSystem: full-length human BTK (Homo sapiens, UniProt Q06187)
# Construct: 2.5× stocks of full-length human BTK (08-080); purchased CarnaBio USA, Inc., Natick, Mass; 08-080
# assayExplanation: Assay A: BTK IC50 Enzyme Assay (microfluidic off-chip mobility shift kinase assay)
# Assay type: biochemical
# conditionDescription: full-length human BTK, kinKDR peptide substrate, incubated 90 min at 27 C; read-out: Assay A (Time Dependent BTK Enzyme Assay IC50)
pIC50: −log10 of the molar value.
For each record, write down the corresponding pIC50.

Please review the following examples before continuing.
C=CC(=O)N1C2CCC1CC(c1ccc(C(N)=O)c(Oc3ccc(Oc4ccccc4)cc3)n1)C2 (stereo not shown) :: > 7.00
C=CC(=O)N[C@@H]1CCN(c2ccc(C(N)=O)c(Nc3ccc(C(=O)N4CCOCC4)cc3)n2)C1 :: > 7.00
C/C=C/C(=O)N1CCC(Nc2cnc(Oc3ccc(Oc4ccccc4)cc3)c(C(N)=O)c2)C1 (stereo not shown) :: 5.30 to 6.00

Short answer for N#C/C(=C\C1CC1)C(=O)N1C[C@@H]2C[C@H]1CN2c1ncc(C(N)=O)c(Oc2ccc(Oc3ccccc3)cc2)n1 : pIC50 was 5.30 to 6.00

---

# assayedSystem: full-length human BTK (Homo sapiens)
# Construct: 2.5× stocks of full-length human BTK (08-080); purchased CarnaBio USA, Inc., Natick, Mass; 08-080
# assayExplanation: Assay A: BTK IC50 Enzyme Assay (microfluidic off-chip mobility shift kinase assay)
# Assay type: biochemical
# conditionDescription: full-length human BTK, kinKDR peptide substrate, incubated 90 min at 27 C; read-out: Assay A (Time Dependent BTK Enzyme Assay IC50)
pIC50: −log10 of the molar value.
For each record, write down the corresponding pIC50.

Please review the following examples before continuing.
C=CC(=O)NC1CC2(C1)CC(Nc1ncc(C(N)=O)c(Oc3ccc(Oc4ccccc4)cc3)n1)C2 (stereo not shown) :: 5.30 to 6.00
C=CC(=O)N[C@H]1CCN(c2nc(Nc3ccc(C(=O)NC(C)(C)C)cc3)c(F)cc2C(N)=O)C1 :: > 7.00
C=CC(=O)N[C@H]1CCN(c2ccc(C(N)=O)c(Nc3ccc(N4CCC(F)(F)CC4)cc3)n2)C1 :: > 7.00

Kindly review the next compound as well.
Short answer for N#CN1CCCC(Nc2cnc(Oc3ccc(Oc4ccccc4)cc3)c(C(N)=O)c2)C1 (stereo not shown) : pIC50 was 5.30 to 6.00

---

# assayedSystem: full-length human BTK (Homo sapiens, UniProt Q06187)
# Construct: 2.5× stocks of full-length human BTK (08-080); purchased CarnaBio USA, Inc., Natick, Mass; 08-080
# assayExplanation: Assay A: BTK IC50 Enzyme Assay (microfluidic off-chip mobility shift kinase assay)
# Type: biochemical
# conditionDescription: full-length human BTK, kinKDR peptide substrate, incubated 90 min at 27 C; read-out: Assay A (Time Dependent BTK Enzyme Assay IC50)
pIC50: −log10 of the molar value.
parameter: pIC50

Please review the following examples before continuing.
N#C/C(=C\C1CC1)C(=O)N1C[C@@H]2C[C@H]1CN2c1ccc(C(N)=O)c(Oc2ccc(Oc3ccccc3)cc2)n1 :: 5.30 to 6.00
C=CC(=O)N[C@H]1CCN(c2nc(Nc3ccc(NC(=O)C(C)(C)C)cc3)ccc2C(N)=O)C1 :: > 7.00
C=CC(=O)N1C[C@@H]2CCN(c3ncc(C(N)=O)c(Oc4ccc(Oc5ccccc5)cc4)n3)[C@@H]2C1 :: 6.00 to 7.00

Each of the following entries comes with a recorded value; kindly state pIC50 for each.
1. C=CC(=O)N1CC=C(c2ccc(C(N)=O)c(Nc3ccc(CCN4CCCC4)cc3)n2)CC1
2. C/C=C/C(=O)N1CCCC(Nc2cnc(Oc3ccc(Oc4ccccc4)cc3)c(C(N)=O)c2)C1 (stereo not drawn)
3. C=CC(=O)N1CCN(c2ccc(C(N)=O)c(N(C)c3cccc(C)c3)n2)CC1

*A*
> 7.00
< 5.30
6.00 to 7.00

Each of the following entries comes with a recorded value; kindly state pIC50 for each.
1. C=CC(=O)N[C@H]1CCN(c2cc(Oc3ccc(OCc4ccccc4)cc3)c(C(N)=O)cn2)C1
2. C=CC(=O)N1CCC(c2cc(Oc3ccc(C(=O)Nc4ccccc4)cc3)c(C(N)=O)cn2)C1 (stereo not drawn)
3. C=CC(=O)N[C@H]1CCN(c2ccc(C(N)=O)c(Nc3ccc(C4CCN(C)CC4)cc3)n2)C1
4. C=CC(=O)N1[C@@H]2CC[C@H]1CC(c1cnc(C(N)=O)cn1)C2 (stereo partly drawn)
5. C=CC(=O)N[C@H]1CCN(c2cc(Nc3ccc(C(=O)N4CCOCC4)cc3)c(C(N)=O)cn2)C1
6. C=CC(=O)N[C@H]1CCN(c2cc(Oc3ccc(Oc4ccc(C)cc4)cc3)c(C(N)=O)cn2)C1
7. CN(C)C/C=C/C(=O)N1CCC(c2ccc(C(N)=O)c(Oc3ccc(Oc4ccccc4)cc3)n2)CC1
8. C=CC(=O)N[C@H]1CCN(c2nc(Nc3ccc(N4CC(C)OC(C)C4)c(F)c3)c(C(N)=O)cc2F)C1 (stereo partly drawn)

*A*
1. 6.00 to 7.00
2. 5.30 to 6.00
3. > 7.00
4. 5.30 to 6.00
5. > 7.00
6. 6.00 to 7.00
7. > 7.00
8. > 7.00

Each of the following entries comes with a recorded value; kindly state pIC50 for each.
1. C/C=C/C(=O)N1CCCC(Nc2cnc(Oc3ccc(Oc4cccc(F)c4)cc3)c(C(N)=O)c2)C1 (stereo not drawn)
2. C=CC(=O)NC1CCCN(c2cnc(Oc3ccc(Oc4ccccc4)cc3)c(C(N)=O)c2)C1 (stereo not drawn)
3. C=CC(=O)N[C@H]1CCN(c2nc(Oc3ccc(Oc4ccccc4)cc3)c(C(N)=O)cc2F)C1
4. C=CC(=O)NC1CCC(c2cnc(C(N)=O)c(NC(C)=O)c2)CC1 (stereo not drawn)
5. C=CC(=O)N[C@H]1CCN(c2ccc(C(N)=O)c(Nc3ccc(NC(=O)C(C)(C)C)cc3)n2)C1
6. C=CC(=O)N[C@H]1CCN(c2ccc(C(N)=O)c(Nc3ccc(F)cc3)n2)C1
7. C=CC(=O)N1CC=C(c2cncc(C(N)=O)c2Nc2ccc(N3C[C@@H](C)O[C@@H](C)C3)nc2)CC1

*A*
1: 5.30 to 6.00; 2: 6.00 to 7.00; 3: 6.00 to 7.00; 4: 5.30 to 6.00; 5: 6.00 to 7.00; 6: > 7.00; 7: 5.30 to 6.00

Each of the following entries comes with a recorded value; kindly state pIC50 for each.
1. N#CN1CC2(CC(Nc3ncc(C(N)=O)c(Oc4ccc(Oc5ccccc5)cc4)n3)C2)C1
2. C=CC(=O)N[C@H]1CCN(c2ccc(C(N)=O)c(Nc3ccc(N4CCOCC4)nc3)n2)C1
3. C/C=C(\C#N)C(=O)N1C[C@@H]2C[C@H]1CN2c1ncc(C(N)=O)c(Oc2ccc(Oc3ccccc3)cc2)n1
4. C=CC(=O)N[C@H]1CCN(c2ccc(C(N)=O)c(Nc3ccc(N4CC(C)OC(C)C4)cc3)n2)C1 (stereo partly drawn)
5. C=CC(=O)N[C@H]1CCN(c2ccc(C(N)=O)c(Oc3ccc(OCc4ccccc4)cc3)n2)C1

*A*
< 5.30
> 7.00
5.30 to 6.00
> 7.00
6.00 to 7.00

Each of the following entries comes with a recorded value; kindly state pIC50 for each.
1. C=CC(=O)N[C@H]1CCN(c2ccc(C(N)=O)c(Nc3ccc(C(=O)N4CCN(C)CC4)cc3)n2)C1
2. C=CC(=O)N1CCC(c2ccc(C(N)=O)c(Nc3ccc(C(=O)N4CCCCC4)cc3)n2)CC1
3. C=CC(=O)N[C@H]1CCN(c2ccc(C(N)=O)c(Nc3ccc(Oc4ccccc4)cc3)n2)C1

*A*
1: > 7.00; 2: > 7.00; 3: > 7.00

Short answer for C=CC(=O)N1CCC=C(c2cnc(Oc3ccc(Oc4ccccc4)cc3)c(C(N)=O)c2)C1 : pIC50 was > 7.00
